Reference source for all entries: patent US20080096906A1

Measured log10(Ki), listed per entry.
- Target System: TAAR1 (Mus musculus, UniProt Q923Y8)
- Sequence (Q923Y8 whole entry): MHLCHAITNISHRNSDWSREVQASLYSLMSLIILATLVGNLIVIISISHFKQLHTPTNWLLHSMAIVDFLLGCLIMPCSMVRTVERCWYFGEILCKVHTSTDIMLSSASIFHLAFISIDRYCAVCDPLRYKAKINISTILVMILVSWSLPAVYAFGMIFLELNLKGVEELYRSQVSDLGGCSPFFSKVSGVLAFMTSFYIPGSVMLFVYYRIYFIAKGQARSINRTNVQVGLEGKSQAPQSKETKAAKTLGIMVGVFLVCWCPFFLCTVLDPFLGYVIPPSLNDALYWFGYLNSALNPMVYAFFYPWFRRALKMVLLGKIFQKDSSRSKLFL
Measure: log10(Ki) (log10 of the value in nM)

>>> numeric_value("CCN(Cc1ncc[nH]1)c1cccc(OCc2ccccc2)c1")
1.42
>>> numeric_value("CC(C)N(Cc1ncc[nH]1)c1cccc(OCc2ccccc2)c1")
1.32
>>> numeric_value("Clc1ccc(NCc2ncc[nH]2)cc1Cl [Example K8, reference compound]")
1.74
>>> numeric_value("c1ccc(COc2cccc(NCc3ncc[nH]3)c2)cc1")
0.45
>>> numeric_value("CC(C)N(Cc1ncc[nH]1)c1cccc(Cc2ccccc2)c1")
0.30
>>> numeric_value("Cc1cccc(N(Cc2ncc[nH]2)C(C)C)c1")
1.95
>>> numeric_value("COc1cc(NCc2ncc[nH]2)ccc1Cl")
1.41
>>> numeric_value("CN(Cc1ncc[nH]1)c1ccc(Cl)cc1")
1.91
>>> numeric_value("CC(C)N(Cc1ncc[nH]1)c1cccc(Oc2ccc(Cl)cc2)c1")
1.91
>>> numeric_value("CCN(Cc1ncc[nH]1)c1cccc(Cl)c1")
1.56

----------
- Target System: TAAR1 (Mus musculus, UniProt Q923Y8)
Measure: Ki (nM)

>>> numeric_value("CN(Cc1ncc[nH]1)c1cccc(Cl)c1")
30
>>> numeric_value("Brc1cccc(NCc2ncc[nH]2)c1")
99.5
>>> numeric_value("CCN(Cc1ncc[nH]1)c1ccc(Cl)c(Cl)c1")
33.1
>>> numeric_value("Fc1ccc(NCc2ncc[nH]2)cc1F")
70.8
